# Target or test system: proliferating cell nuclear antigen (PCNA) (UniProt P12004 1-261)
# Sequence (P12004 whole entry): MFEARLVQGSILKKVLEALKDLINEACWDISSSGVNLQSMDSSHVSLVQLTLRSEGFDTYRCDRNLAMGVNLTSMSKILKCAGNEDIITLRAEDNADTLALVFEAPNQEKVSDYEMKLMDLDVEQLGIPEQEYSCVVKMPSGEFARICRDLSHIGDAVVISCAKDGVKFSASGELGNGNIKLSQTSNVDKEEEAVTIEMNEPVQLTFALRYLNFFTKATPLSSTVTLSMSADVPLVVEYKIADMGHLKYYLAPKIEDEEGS
# Test details: ITC
pKd: −log10 of the molar value.
Quantity kind: pKd

> print(dat)
                                     binder  result.number
1  Ac-RKRRQTSMTDFYHSKRR-NH2 [p21_(140–156) peptide (wild-type p21 PIP-degron with flanking regions)]           6.24
